Just for reference, patent US10670605B2 is where these values come from.

Target: KDM4B C694 (O94953) (Homo sapiens)
Sequence (O94953 1-1096): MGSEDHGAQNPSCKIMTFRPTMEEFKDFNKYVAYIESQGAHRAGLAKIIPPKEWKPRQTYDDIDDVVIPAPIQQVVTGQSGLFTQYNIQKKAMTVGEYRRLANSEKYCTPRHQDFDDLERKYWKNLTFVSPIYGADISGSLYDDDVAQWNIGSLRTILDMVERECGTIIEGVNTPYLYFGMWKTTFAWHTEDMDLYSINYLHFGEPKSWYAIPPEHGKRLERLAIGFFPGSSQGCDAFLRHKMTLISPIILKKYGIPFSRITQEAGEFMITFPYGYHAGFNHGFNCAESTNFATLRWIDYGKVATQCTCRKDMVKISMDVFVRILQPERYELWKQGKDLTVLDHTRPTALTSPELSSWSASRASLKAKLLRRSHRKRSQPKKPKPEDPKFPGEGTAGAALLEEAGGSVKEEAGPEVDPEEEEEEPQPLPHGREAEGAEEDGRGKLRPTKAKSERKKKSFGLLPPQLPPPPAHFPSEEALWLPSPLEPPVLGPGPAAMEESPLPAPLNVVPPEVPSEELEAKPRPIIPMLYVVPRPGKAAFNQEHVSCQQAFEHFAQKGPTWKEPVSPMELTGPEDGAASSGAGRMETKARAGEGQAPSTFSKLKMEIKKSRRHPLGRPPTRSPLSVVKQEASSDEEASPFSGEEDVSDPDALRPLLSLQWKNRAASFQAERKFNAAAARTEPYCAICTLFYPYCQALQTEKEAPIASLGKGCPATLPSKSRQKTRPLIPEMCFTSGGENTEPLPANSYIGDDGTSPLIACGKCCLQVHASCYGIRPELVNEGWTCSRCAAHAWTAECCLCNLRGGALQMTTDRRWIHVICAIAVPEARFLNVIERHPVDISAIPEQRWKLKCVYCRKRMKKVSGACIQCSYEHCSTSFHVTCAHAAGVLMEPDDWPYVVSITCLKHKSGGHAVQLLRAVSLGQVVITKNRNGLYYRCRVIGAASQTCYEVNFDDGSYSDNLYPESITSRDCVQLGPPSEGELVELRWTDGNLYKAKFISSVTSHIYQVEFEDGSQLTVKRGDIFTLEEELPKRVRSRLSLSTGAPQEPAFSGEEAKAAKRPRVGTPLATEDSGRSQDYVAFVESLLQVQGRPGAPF
Method description: Competitive isoTOP-ABPP, cell lysates
Assay type: binding
Assay conditions: 500 μm in-vitro ramos
Protocol: TEV digests were pressure loaded onto a 250 μm (inner diameter) fused silica capillary column packed with C18 resin (Aqua 5 μm, Phenomenex). The samples were analyzed by multidimensional liquid chromatography tandem mass spectrometry (MudPIT), using an LTQ-Velos Orbitrap mass spectrometer (Thermo Scientific) coupled to an Agilent 1200-series quaternary pump. […]
Parameter: isoTOP-ABPP ratio (reactivity profile), O94953_C694. Scope: all listed entries.
Readout type: isoTOP-ABPP ratio (reactivity profile), O94953_C694

# Record smiles, Target, Endpoint value
data = [
    ("C=CC(=O)N(Cc1cccnc1)c1ccc(Oc2ccccc2)c(C(F)(F)F)c1", "KDM4B C694 (O94953) (Homo sapiens)", 1.1),
    ("O=C(CCl)N1CCC(C(O)(c2ccccc2)c2ccccc2)CC1", "KDM4B C694 (O94953) (Homo sapiens)", 2.0),
    ("O=C(CCl)NC12CC3CC(CC(C3)C1)C2", "KDM4B C694 (O94953) (Homo sapiens)", 1.8),
    ("N#C/C(=C\\c1cc(C(F)(F)F)cc(C(F)(F)F)c1)C(N)=O", "KDM4B C694 (O94953) (Homo sapiens)", 3.2),
]
